Some compounds, each annotated with its measured TGI.
tested on: NCI/ADR-RES ovarian; experiment: NCI tumour cell line growth inhibition, 48 h

Sample answers from the record:
c1ccc(Nc2nn3c(CCCCCCCCc4nnc5sc(Nc6ccccc6)nn45)nnc3s2)cc1: > 100 µM
O=C(C/C(=N/O)C(F)(F)F)c1cccs1: > 100 µM
COC(=O)c1c2c(cc3c1CC1(Cc4cc5c(c(C(C)=O)c4C1)CCCC5)C3)CCCC2 (centres undefined): > 100 µM
COc1cc2cc(C(=O)N3CC(CCl)c4ccc(N(C)C)cc43)[nH]c2c(OC)c1OC (centres undefined): 0.272 µM
Cc1nc2ccc(F)cc2c(Cl)c1CCCl: > 100 µM
Cc1cc(S(=O)(=O)Nc2nncn2-c2ccc(Cl)cc2)c(S)cc1Cl: > 10 µM
COc1ccc2c(c1OC)C(C(Cl)(Cl)Cl)N1CCc3cc4c(cc3C1=C2)OCO4 (centres undefined): > 100 µM
C=C1C(=O)O[C@H]2[C@H]1CC/C(COC(=O)OC/C1=C/CC[C@@]3(C)O[C@H]3[C@H]3OC(=O)[C@@H](CN(C)C)[C@@H]3CC1)=C\CC[C@@]1(C)O[C@@H]21: 29.7 µM

Considering `C[C@H]1CNC(=O)c2cnn3ccc(nc23)N[C@H](C)c2cc(F)ccc2O1` , its TGI with NCI/ADR-RES ovarian was recorded as 47.4 µM
